From: paper PMC12718081

Tested on: adult schistosomes (male and female worms)
Test: Adult worm ex vivo high-content image-based motility assay
Type: cell-based, Schistosoma mansoni
Conditions: male adult worms, 72 h; single experiment or geometric mean; read-out: Male worm motility inhibition (EC50)
ENDPOINT NAME: EC50 (µM)
The response must be a number in µM with no trailing unit.

INPUT: Using the record for O=C(C1CCCCC1)N1CC(=O)N2CCc3ccc(-n4cc(C5=CCCCC5)nn4)cc3C2C1 (centres unmarked) , report its EC50.
OUTPUT: 40

INPUT: Record: O=C(C1CCCCC1)N1CC(=O)N2CCc3ccc([N+](=O)[O-])cc3C2C1 (centres unmarked)
OUTPUT: 15

---

System: adult schistosomes (male and female worms)
Assay: Adult worm ex vivo high-content image-based motility assay
Format: cell-based, Schistosoma mansoni
Details: Schistosoma mansoni, 24 h, female, 24 h, individual experiments; read-out: Female worm motility inhibition (EC50), values of independent experiments
Field: EC50. Provide a value for each of the molecules that follow.
The response must be a number in µM with no trailing unit.

INPUT: Using the record for Nc1ccc2c(c1)C1CN(C(=O)C3CCCCC3)CC(=O)N1CC2 (centres unmarked) [Compound 3, 9-NH2–PZQ] , report its EC50.
OUTPUT: 9.04

INPUT: Record: CCCc1cn(-c2ccc3c(c2)C2CN(C(=O)C4CCCCC4)CC(=O)N2CC3)nn1 (centres unmarked) [Compound 5e]
OUTPUT: 3.7

---

Experiment: in vitro
Settings: human, HepG2 cytotoxicity (CC50), values of independent experiments
Field: CC50 at 48 h. Provide a value for each of the compounds that follow.
The response must be a number in µM with no trailing unit.

INPUT: Using the record for [N-]=[N+]=Nc1ccc2c(c1)C1CN(C(=O)C3CCCCC3)CC(=O)N1CC2 (stereo not shown) , report its CC50 at 48 h.
OUTPUT: 155

INPUT: Record: O=C(C1CCCCC1)N1CC(=O)N2CCc3ccc(-n4cc(C5=CCCCC5)nn4)cc3C2C1 (stereo not shown)
OUTPUT: 28.7

INPUT: Record: O=C(C1CCCCC1)N1CC(=O)N2CCc3ccc([N+](=O)[O-])cc3C2C1 (stereo not shown)
OUTPUT: 354

INPUT: Record: CCCc1cn(-c2ccc3c(c2)C2CN(C(=O)C4CCCCC4)CC(=O)N2CC3)nn1 (stereo not shown)
OUTPUT: 286

---

Field: EC50. Provide a value for each of the compounds that follow.
Test system: adult schistosomes (male and female worms)
Assay: Adult worm ex vivo high-content image-based motility assay
Type: cell-based, Schistosoma mansoni
Conditions: Schistosoma mansoni, 72 h, female adult worms, 72 h; single experiment or geometric mean; read-out: Female worm motility inhibition (EC50)
The response must be a number in µM with no trailing unit.

INPUT: Using the record for O=C(C1CCCCC1)N1CC(=O)N2CCc3ccc(-n4cc(C5=CCCCC5)nn4)cc3C2C1 (centres unmarked) , report its EC50.
OUTPUT: 89.1

INPUT: Record: Nc1ccc2c(c1)C1CN(C(=O)C3CCCCC3)CC(=O)N1CC2 (centres unmarked)
OUTPUT: 11.2

INPUT: Record: [N-]=[N+]=Nc1ccc2c(c1)C1CN(C(=O)C3CCCCC3)CC(=O)N1CC2 (centres unmarked)
OUTPUT: 3.48

INPUT: Record: O=C(C1CCCCC1)N1CC(=O)N2CCc3ccc([N+](=O)[O-])cc3C2C1 (centres unmarked)
OUTPUT: 30

INPUT: Record: CCCc1cn(-c2ccc3c(c2)C2CN(C(=O)C4CCCCC4)CC(=O)N2CC3)nn1 (centres unmarked)
OUTPUT: 3.1

---

Tested on: adult schistosomes (male and female worms)
Experiment: Adult worm ex vivo high-content image-based motility assay
Format: cell-based, Schistosoma mansoni
Settings: male adult worms, 24 h; single experiment or geometric mean; read-out: Male worm motility inhibition (EC50)
Description: Adult schistosomes’ motility was determined using a high-content assay previously developed by our group, , with images analyzed in CellProfiler software. More details are provided in the Supporting Information. Adult worm ex-vivo high-content assay “Area” and “False Negative Rate” from the MeasureObjectSizeShape and MeasureObjectOverlap modules, respectively. These measurements were then modeled by a multilevel generalized linear statistical model. The effects of the experimental treatments on […]
ENDPOINT NAME: pEC50
Friendly reminder that pEC50 comes from taking -log10 of the concentration in mol/L.

INPUT: pEC50 of O=C(C1CCCCC1)N1CC(=O)N2CCc3ccc([N+](=O)[O-])cc3C2C1 (stereo not shown) on adult schistosomes (male and female worms)?
OUTPUT: 4.85

---

Molecular target: UniProtKB A0A5K4F0X5
Sequence (A0A5K4F0X5 entry or part of it): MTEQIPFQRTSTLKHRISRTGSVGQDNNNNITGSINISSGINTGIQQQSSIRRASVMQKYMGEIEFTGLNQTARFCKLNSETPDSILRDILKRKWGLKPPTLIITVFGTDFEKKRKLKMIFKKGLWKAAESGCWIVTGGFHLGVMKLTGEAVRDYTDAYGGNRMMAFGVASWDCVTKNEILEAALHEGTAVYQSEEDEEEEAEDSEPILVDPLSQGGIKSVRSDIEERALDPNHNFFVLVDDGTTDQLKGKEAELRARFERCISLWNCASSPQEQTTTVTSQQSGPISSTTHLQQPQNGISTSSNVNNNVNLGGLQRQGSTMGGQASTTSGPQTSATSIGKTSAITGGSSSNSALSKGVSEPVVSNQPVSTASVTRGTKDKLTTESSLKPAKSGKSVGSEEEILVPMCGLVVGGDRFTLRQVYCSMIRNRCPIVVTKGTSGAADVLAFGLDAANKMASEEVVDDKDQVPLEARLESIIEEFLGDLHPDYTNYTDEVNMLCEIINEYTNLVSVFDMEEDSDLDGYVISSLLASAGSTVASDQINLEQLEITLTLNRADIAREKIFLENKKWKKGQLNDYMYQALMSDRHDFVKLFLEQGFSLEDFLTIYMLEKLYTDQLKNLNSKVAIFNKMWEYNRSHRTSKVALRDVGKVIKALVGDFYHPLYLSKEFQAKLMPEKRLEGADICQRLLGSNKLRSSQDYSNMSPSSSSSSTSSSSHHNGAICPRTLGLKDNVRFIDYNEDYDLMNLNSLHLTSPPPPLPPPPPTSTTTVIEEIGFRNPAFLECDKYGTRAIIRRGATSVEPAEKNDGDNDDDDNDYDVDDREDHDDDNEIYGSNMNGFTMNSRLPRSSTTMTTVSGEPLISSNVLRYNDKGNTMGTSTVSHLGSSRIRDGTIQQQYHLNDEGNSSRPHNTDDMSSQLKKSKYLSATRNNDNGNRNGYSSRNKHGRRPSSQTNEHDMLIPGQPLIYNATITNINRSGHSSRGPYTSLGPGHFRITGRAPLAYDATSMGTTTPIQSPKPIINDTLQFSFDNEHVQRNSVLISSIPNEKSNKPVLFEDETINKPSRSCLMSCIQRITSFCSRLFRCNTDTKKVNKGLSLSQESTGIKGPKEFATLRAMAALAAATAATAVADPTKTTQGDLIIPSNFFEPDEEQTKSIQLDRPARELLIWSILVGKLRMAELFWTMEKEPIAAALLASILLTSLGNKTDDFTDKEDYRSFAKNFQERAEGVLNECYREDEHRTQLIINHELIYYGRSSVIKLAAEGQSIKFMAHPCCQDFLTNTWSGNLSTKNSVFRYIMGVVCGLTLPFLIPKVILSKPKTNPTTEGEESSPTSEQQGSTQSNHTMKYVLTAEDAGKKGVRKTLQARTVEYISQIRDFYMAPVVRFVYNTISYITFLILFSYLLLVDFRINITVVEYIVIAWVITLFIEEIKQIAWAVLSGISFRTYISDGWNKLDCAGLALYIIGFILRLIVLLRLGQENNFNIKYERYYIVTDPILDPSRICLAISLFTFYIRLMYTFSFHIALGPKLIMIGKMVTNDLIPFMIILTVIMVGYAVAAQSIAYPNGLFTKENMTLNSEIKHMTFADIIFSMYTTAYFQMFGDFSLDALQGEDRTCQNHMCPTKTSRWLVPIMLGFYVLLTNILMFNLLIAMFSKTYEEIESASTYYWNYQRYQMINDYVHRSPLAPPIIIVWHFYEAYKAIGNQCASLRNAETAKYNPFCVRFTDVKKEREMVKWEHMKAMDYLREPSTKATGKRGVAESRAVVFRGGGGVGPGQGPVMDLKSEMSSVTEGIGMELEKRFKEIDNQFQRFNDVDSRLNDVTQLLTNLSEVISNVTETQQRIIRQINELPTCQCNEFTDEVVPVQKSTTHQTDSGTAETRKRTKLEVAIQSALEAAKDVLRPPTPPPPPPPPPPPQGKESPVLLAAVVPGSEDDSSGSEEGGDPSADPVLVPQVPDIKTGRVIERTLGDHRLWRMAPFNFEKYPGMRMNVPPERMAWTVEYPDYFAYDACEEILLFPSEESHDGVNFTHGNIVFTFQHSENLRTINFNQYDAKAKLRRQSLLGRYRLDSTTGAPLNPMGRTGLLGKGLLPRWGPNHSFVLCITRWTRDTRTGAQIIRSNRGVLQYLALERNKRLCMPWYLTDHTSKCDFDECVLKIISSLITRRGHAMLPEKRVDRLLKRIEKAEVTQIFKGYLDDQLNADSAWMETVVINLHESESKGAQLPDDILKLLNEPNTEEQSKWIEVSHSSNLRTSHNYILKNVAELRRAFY
Test: Ca2+ reporter (FLIPR) activation assay, wild-type Sm.TRPMPZQ in HEK293 cells
Conditions: 0.001 to 100 μM
Field: pEC50. Provide a value for each of the compounds that follow.
Friendly reminder that pEC50 comes from taking -log10 of the concentration in mol/L.

INPUT: Using the record for [N-]=[N+]=Nc1ccc2c(c1)C1CN(C(=O)C3CCCCC3)CC(=O)N1CC2 (stereo not shown) , report its pEC50.
OUTPUT: 6.05

INPUT: Record: O=C(C1CCCCC1)N1CC(=O)N2CCc3ccc([N+](=O)[O-])cc3C2C1 (stereo not shown)
OUTPUT: 4.87

INPUT: Record: CCCc1cn(-c2ccc3c(c2)C2CN(C(=O)C4CCCCC4)CC(=O)N2CC3)nn1 (stereo not shown)
OUTPUT: 5.37

INPUT: Record: Nc1ccc2c(c1)C1CN(C(=O)C3CCCCC3)CC(=O)N1CC2 (stereo not shown)
OUTPUT: 5.15
